Recorded TGI by entry
Test system: SW-620 colon
Test: NCI tumour cell line growth inhibition, 48 h

Reference set (5 entries):
GET /value?item= `CCN(CC)Cc1c(/C=C\c2cc(OC)c(OC)c(OC)c2)ccc(OC)c1O` &field=TGI returns > 100 µM

Reported TGI ( `COc1ccc(C(=O)C(c2ccc(OCc3ccccc3)cc2)c2ccc(OCc3ccccc3)cc2)cc1` ) = > 100 µM

Form: compound = `COc1cc2c(cc1OC)C1Cc3cc(OC)c(OC)cc3C(C2)N1C` ; TGI = > 100 µM

Lab book: TGI of `Cc1ccc(NC(=O)/C(Cl)=C(/Cl)C(=O)O)cc1` noted as 29.9 µM

Consider c1ccc2c(c1)NC1(N3CCCCC3)CCCCC21 (stereo not given) . Its measured TGI is > 100 µM

---
The recorded TGI for entry `CC(=O)c1cc(C(=O)c2ccc3c(c2)Sc2ccccc2N3)c2cc(C)ccn12` equals > 100 µM

Note to self: TGI recorded for `O=C(c1ccc(Cl)cc1)N(C(=S)OCc1ccccn1)c1ccccc1` was > 100 µM

According to the records, this compound COC(=O)C(Cc1nc2ccccc2nc1C)/C(=N\NC(N)=O)C(=O)Nc1cccc([N+](=O)[O-])c1 (stereo not given) displays TGI of > 100 µM

Consider OCCN1CCN2C=C(C3CCCC4N(CCO)CCN34)CCC21 (stereo not given) . Its measured TGI is > 67.9 µM

// TGI value for `O=C(COC(=O)c1cccc2c(=O)c3ccccc3[nH]c12)Nc1ccc(C(=O)O)cc1` : > 100 µM
